B1: ALKBH7 (parent)
chain: SVICRSLPEGMGPGESGQPPPAC

Variants of: B1
Assay: protein stability index of a GFP-peptide fusion (GPS, HEK-293T) (PSI 1-6); higher = more stable;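 note: lentivirally expressed fusions sorted by FACS into six bins by GFP to DsRed ratio, PSI derived from sequencing read proportions per bin multiplied by bin number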
Details: c terminus: native
Entry flag: Met if protein stability index reaches 2; Not met if it does not.

E15N :: Not met
L7R :: Not met
P13R :: Met
G17A :: Met
S16M :: Met

Incoming: Evaluate "C23D" : protein stability index at minimum 2?
Outgoing: Met

Incoming: Evaluate "G10S" : protein stability index at minimum 2?
Outgoing: Met

Incoming: Evaluate "A22S" : protein stability index at minimum 2?
Outgoing: Met

Incoming: Evaluate "P20Q" : protein stability index at minimum 2?
Outgoing: Not met

Incoming: Evaluate "M11C" : protein stability index at minimum 2?
Outgoing: Not met

Incoming: Evaluate "I3V" : protein stability index at minimum 2?
Outgoing: Not met

Incoming: Evaluate "P21D" : protein stability index at minimum 2?
Outgoing: Met

Incoming: Evaluate "E15K" : protein stability index at minimum 2?
Outgoing: Not met

Incoming: Evaluate "E9H" : protein stability index at minimum 2?
Outgoing: Not met
